- measured_target: human LPA1 (Homo sapiens)
- Construct: expressed in transfected cells; host or cells: CHO-K1
- Sequence (Q92633 whole entry): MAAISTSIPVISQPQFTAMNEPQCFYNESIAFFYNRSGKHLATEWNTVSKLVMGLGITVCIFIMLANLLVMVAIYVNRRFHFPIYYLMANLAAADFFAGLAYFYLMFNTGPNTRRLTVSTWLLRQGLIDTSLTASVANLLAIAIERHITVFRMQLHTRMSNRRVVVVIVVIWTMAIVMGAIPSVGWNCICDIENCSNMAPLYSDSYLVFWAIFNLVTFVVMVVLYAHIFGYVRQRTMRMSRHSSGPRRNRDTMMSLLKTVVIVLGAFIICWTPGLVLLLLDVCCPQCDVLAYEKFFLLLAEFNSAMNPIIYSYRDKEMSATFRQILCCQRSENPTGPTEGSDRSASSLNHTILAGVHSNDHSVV
- protocol_text: In vitro LPA1 calcium flux antagonist assay - Bioduro protocol
- Format: cell-based
- run_conditions: CHO-K1 cells overexpressing human LPA1 and G15a; LPA challenge at EC80; calcium mobilization on FLIPR Tetra; read-out: IC50
pIC50: −log10 of the molar value.
metric: pIC50

smiles_record | metric | value_operator | numeric_result
COc1cc(OC)c(C)c(-c2c(F)cc(NC3(C(=O)O)CCOCC3)cc2COC2CCCC2)c1 | pIC50 | = | 7.40
CCOc1cccc(-c2ccc(OC3(C(=O)O)CCC3)cc2COC2CC2)c1 | pIC50 | < | 5.00
COc1cc(-c2ccc(NC3(C(=O)O)CCOCC3)cc2COC2CCCC2)cc(OC)c1C(F)F | pIC50 | = | 7.55
CCOc1cc(OC)cc(-c2ccc(NC3(C(=O)O)CCOCC3)cc2COC2CC2)n1 | pIC50 | < | 5.00
